Test: CHOP2 Reporter Counterscreen Assay for Inhibitors of Ubiquitin-specific Protease USP2a;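 note: activated enterokinase alone at 50 pM in a cell-free format rather than USP2a or CHOP2; nearly all actives have a fitted effect of over 55% in size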
Conditions: purified enterokinase, fluorogenic substrate, 485/531 nm; series mostly up to 38.3 µM
Results filed as inconclusive are left out. Activity calls are given as the source filed them. Calls come from the whole dose curve; as a rule, active = well fitted inhibition curve with a large enough effect; inconclusive = small, poorly fitted or top-dose-only effect; inactive = flat fitted curve, though single readings scatter.
Permitted responses: active, inactive

Recorded results for 4 compounds are shown here.
COc1ccc(NC(=O)c2c(C)nn(Cc3ccccc3Cl)c2Cl)cc1Cl :: inactive
O=C1CC(=O)N(Cc2ccccc2)C(=O)N1CCCCCCN1C(=O)CC(=O)N(Cc2ccccc2)C1=O :: inactive
CCCC1=C(C(=O)OCC)C2(C(=O)Nc3ccc(C)cc32)C(C#N)=C(N)O1 (stereo not drawn) :: inactive
O=c1[nH]c(=S)n(Cc2ccco2)c(O)c1C=NCc1cccs1 :: active

Attention now turns to another entry.
Test call, this compound: FC(F)(F)c1ccc2c(c1)N(CCCN1CCN(CCCl)CC1)c1ccccc1S2
inactive

---

Experiment: CHOP2 Reporter Counterscreen Assay for Inhibitors of Ubiquitin-specific Protease USP2a;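 note: activated enterokinase alone at 50 pM in a cell-free format rather than USP2a or CHOP2; nearly all actives have a fitted effect of over 55% in size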; note: potency is the fitted concentration of half-maximal effect
Conditions: purified enterokinase, fluorogenic substrate, 485/531 nm; series mostly up to 38.3 µM
Records with an inconclusive call do not appear. Calls of active or inactive are those of the source. Calls follow the shape of the dose curve; as a rule, active = well fitted inhibition curve with a large enough effect; inconclusive = small, poorly fitted or top-dose-only effect; inactive = flat fitted curve, though single readings scatter.
value.type: Potency

O=C1NC(=O)N(Cc2ccco2)C(=O)/C1=C/C=C/c1ccco1 :: 8.91 µM (active)
COc1ccc(S(=O)(=O)Cc2ccc(C(=O)N3CCC4(CC3)OCCO4)o2)cc1 :: inactive
O=C1NC(=S)N(c2ccccc2)C(=O)/C1=C/c1ccco1 :: 3.55 µM (active)
Nc1ccc(S(=O)(=O)N2CCCCC2c2cccnc2)cc1 (stereo unspecified) :: inactive
Cc1nn(Cc2ccc(Cl)cc2Cl)c(Cl)c1C(=O)Nc1ccc(OC(F)F)cc1 :: inactive

In the following, a different compound is considered.
State the recorded Potency for this entry: O=c1[nH]c(=O)n(Cc2ccc(F)cc2)c(O)c1C=NCCCn1ccnc1
inactive

---

Test: CHOP2 Reporter Counterscreen Assay for Inhibitors of Ubiquitin-specific Protease USP2a;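 note: activated enterokinase alone at 50 pM in a cell-free format rather than USP2a or CHOP2; nearly all actives have a fitted effect of over 55% in size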
Conditions: purified enterokinase, fluorogenic substrate, 485/531 nm; series mostly up to 38.3 µM
Results filed as inconclusive are left out. Calls of active or inactive are those of the source. Calls follow the shape of the dose curve; as a rule, active = well fitted inhibition curve with a large enough effect; inconclusive = small, poorly fitted or top-dose-only effect; inactive = flat fitted curve, though single readings scatter.
Permitted responses: t = active, f = inactive

Dear colleague, could you share the recorded outcome for CC(=Nc1ccc2c(c1)CCC2)c1c(O)n(C)c(=O)n(C)c1=O when you have a moment?
f

Assay result, entry OC(c1ccncc1)(c1ccc(F)cc1)c1ccc(F)cc1 — outcome?
f

For this molecule, state the assay outcome: O=C(O)c1cccc2c1NC(C(=O)O)C1CC(Sc3ccccc3[N+](=O)[O-])C(Cl)C21 (stereo not drawn)
t
